Molecular target: T1, Peptide 8: Biotin-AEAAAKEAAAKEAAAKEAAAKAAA-Tyr-acid (N-terminal biotin; C-terminal acid; no PC)
T1 construct: control peptide without PC
T1 peptide: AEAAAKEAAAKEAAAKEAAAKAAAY
Assay: scFv ELISA
Reported OD450 values follow for various binders
Reply numerically in OD450, unit not repeated.

Task item: Need OD450 of PcOxP_DB02_C12 (scFv, V domains shown, scFv in periplasmic extract) VH: EVQLLESGGGLVQPGGSLRLSCAASGFTFSDHYMEWVRQAPGKGLEWVAASRNKANDYTTEYADSVKGRFTISRDNSKNTLYLQMNSLRAEDTAVYYCARDYYGSSYWYFDVWGQGTLVTVSS VL: DIVMTQSPDSLAVSLGERATINCTASESLYSSKHKVHYLAWYQQKPGQPPKLLIYGAHNRYIGVPDRFSGSGSGTDFTLTISSLQAEDVAVYYCANFYSYPLTFGGGTKVEIK , thanks.
Reply: 0.04

Task item: Need OD450 of PcOxP_DB01_H02 (scFv, V domains shown, scFv in periplasmic extract) VH: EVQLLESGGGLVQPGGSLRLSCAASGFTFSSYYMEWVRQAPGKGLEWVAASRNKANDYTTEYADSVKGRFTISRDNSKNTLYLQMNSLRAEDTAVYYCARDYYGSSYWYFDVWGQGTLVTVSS VL: DIVMTQSPDSLAVSLGERATINCTASSSLYSSKHKVHYLAWYQQKPGQPPKLLIYGASNRYIGVPDRFSGSGSGTDFTLTISSLQAEDVAVYYCAQFYSYPLTFGGGTKVEIK , thanks.
Reply: 0.06
